Origin of measurements: patent US11746100B2

Reported pEC50 values for the following molecules.
study_target: human ferroportin (Homo sapiens)
Construct: luciferase reporter (read with the Nano-Glo Luciferase Assay System); expressed in transfected cells; host or cells: CHO cells, stably transfected, expression induced with doxycycline
Sequence (Q9NP59 whole entry): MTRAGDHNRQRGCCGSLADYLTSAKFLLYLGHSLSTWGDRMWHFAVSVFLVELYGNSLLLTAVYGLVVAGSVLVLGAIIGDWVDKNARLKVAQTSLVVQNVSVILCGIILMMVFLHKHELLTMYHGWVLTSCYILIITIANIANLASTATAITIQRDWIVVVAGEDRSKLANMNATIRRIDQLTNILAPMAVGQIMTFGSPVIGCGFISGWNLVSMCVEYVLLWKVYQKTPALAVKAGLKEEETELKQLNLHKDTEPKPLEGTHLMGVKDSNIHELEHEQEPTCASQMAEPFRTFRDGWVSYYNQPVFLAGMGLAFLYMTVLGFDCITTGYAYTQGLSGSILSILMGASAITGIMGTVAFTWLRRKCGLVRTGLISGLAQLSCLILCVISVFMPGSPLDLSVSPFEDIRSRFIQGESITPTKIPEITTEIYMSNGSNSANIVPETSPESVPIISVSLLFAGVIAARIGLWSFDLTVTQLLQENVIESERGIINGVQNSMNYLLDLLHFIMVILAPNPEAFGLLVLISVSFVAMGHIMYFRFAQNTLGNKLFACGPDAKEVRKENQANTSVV
protocol_notes: Biological in-vitro ferroportin internalization assay (luciferase reporter)
Assay type: cell-based
particulars: average pEC50; stably-transfected CHO cell line expressing human ferroportin tagged to a luciferase reporter; 6 h incubation with test compound
Reply with just the number.

Worked cases, pEC50 given:
mol_smiles: O=C1CN(c2nc(-c3ccccn3)nc3c2CCC3)CCCN1
study_target: human ferroportin (Homo sapiens)
pEC50: 5.7
//
mol_smiles: CC(C)NC(=O)CN(C)c1nc(-c2cc(OCC(C)(C)O)ccn2)nc2c1CC(C)(C)C2
study_target: human ferroportin (Homo sapiens)
pEC50: 7.2
//
mol_smiles: C[C@H](C(=O)NC1CCCCC1)N(C)c1nc(-c2ccccn2)nc2c1CCC2
study_target: human ferroportin (Homo sapiens)
pEC50: 7.6

Switching to the query record.
### Prompt Dear colleague, I am looking for the recorded pEC50 of the following molecule: Cc1ccc(-c2nc3c(c(N(C)CC(=O)NC(C)(C)C)n2)CCC3)nc1
### Response 7.2
